system_tested: T1, huZIP12-ECD-GST (human, UniProt Q504Y0 24-202)
T1 construct: also called hZIP12-ECD-GST; human ZIP12-ECD-GST; not shown: glutathione S-transferase (GST) tag
experiment_summary: SPR single cycle kinetics (Biacore): mAb captured on protein A, huZIP12-ECD-GST injected at 3.12-800 nM
pKd: −log10 of the molar value.
# pKd annotations

[
  {
    "binder": "H2_Y60K_L1 (antibody, V domains shown, Fc null human IgG1 / human kappa) VH: QVQLVESGGGVVQPGRSLRLSCAASGFTFSDYGMHWVRQAPGKGLEWVAYISSGGTTIYKADTVKGRFTISRDNSKNTLYLQMNSLRAEDTAVYYCARWTNLYAMDYWGQGTTVTVSS VL: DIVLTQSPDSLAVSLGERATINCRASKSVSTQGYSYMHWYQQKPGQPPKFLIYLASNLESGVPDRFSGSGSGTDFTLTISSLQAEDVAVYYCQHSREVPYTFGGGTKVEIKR",
    "pKd": 9.02
  },
  {
    "binder": "H2_T56H_L2 (antibody, V domains shown, Fc null human IgG1 / human kappa) VH: QVQLVESGGGVVQPGRSLRLSCAASGFTFSDYGMHWVRQAPGKGLEWVAYISSGGHTIYYADTVKGRFTISRDNSKNTLYLQMNSLRAEDTAVYYCARWTNLYAMDYWGQGTTVTVSS VL: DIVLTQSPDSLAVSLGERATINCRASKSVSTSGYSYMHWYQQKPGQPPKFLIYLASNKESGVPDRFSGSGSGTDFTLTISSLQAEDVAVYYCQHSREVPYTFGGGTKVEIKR",
    "pKd": 8.79
  },
  {
    "binder": "H2_T63Y_VL-par (antibody, V domains shown, Fc null human IgG1 / human kappa) VH: QVQLVESGGGVVQPGRSLRLSCAASGFTFSDYGMHWVRQAPGKGLEWVAYISSGGTTIYYADYVKGRFTISRDNSKNTLYLQMNSLRAEDTAVYYCARWTNLYAMDYWGQGTTVTVSS VL: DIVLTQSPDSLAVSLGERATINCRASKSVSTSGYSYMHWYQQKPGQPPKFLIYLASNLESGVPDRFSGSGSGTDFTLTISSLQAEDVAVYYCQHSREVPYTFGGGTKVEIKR",
    "pKd": 8.99
  }
]
